Measured Kd, listed per entry.
System name: SARS-CoV-2 S1 (antigen of the Carterra SPR kinetics) (SARS-CoV-2, UniProt P0DTC2 16-685)
Experimental details: Carterra SPR

{"Binder": "1-10 (antibody, V domains shown, also called variant 1-10) VH: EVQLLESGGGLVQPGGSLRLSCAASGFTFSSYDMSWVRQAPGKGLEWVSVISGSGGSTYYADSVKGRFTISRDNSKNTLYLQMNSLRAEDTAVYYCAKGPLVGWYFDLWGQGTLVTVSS VL: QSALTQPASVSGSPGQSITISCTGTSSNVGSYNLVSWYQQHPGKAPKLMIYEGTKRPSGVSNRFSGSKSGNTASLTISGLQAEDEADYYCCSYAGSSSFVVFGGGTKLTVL", "Kd / nM": 142}
{"Binder": "1-30 (antibody, V domains shown, also called variant 1-30) VH: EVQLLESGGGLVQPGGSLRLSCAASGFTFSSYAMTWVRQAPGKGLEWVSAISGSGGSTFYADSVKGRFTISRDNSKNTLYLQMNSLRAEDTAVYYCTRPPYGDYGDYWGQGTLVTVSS VL: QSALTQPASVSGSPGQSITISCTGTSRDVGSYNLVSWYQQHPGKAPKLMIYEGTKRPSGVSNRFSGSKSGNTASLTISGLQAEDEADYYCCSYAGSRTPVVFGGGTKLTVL", "Kd / nM": 37.2}
{"Binder": "1-24 (antibody, V domains shown, also called variant 1-24) VH: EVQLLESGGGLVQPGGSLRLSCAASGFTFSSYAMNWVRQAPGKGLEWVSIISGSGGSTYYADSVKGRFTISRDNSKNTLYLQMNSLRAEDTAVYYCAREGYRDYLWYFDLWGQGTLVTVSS VL: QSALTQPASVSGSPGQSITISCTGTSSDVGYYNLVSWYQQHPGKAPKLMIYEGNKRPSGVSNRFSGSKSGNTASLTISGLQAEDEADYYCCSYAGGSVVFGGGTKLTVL", "Kd / nM": 75.5}
{"Binder": "1-29 (antibody, V domains shown, also called variant 1-29) VH: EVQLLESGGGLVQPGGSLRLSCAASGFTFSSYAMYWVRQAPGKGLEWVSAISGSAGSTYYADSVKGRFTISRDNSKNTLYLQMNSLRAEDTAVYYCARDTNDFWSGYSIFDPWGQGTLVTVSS VL: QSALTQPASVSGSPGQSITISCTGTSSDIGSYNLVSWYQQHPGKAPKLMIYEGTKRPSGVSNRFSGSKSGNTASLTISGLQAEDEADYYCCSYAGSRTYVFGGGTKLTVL", "Kd / nM": 3680}
{"Binder": "1-2 (antibody, V domains shown, also called variant 1-2) VH: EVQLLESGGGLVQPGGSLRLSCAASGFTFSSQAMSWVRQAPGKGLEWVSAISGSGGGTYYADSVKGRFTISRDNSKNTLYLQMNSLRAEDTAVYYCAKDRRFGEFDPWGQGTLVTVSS VL: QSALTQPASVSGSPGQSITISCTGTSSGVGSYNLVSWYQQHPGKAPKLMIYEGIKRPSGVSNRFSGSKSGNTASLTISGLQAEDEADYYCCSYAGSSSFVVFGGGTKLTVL", "Kd / nM": 17200}
